# target or test system: MRGPRX4 (Homo sapiens)
# Sequence (Q96LA9 whole entry): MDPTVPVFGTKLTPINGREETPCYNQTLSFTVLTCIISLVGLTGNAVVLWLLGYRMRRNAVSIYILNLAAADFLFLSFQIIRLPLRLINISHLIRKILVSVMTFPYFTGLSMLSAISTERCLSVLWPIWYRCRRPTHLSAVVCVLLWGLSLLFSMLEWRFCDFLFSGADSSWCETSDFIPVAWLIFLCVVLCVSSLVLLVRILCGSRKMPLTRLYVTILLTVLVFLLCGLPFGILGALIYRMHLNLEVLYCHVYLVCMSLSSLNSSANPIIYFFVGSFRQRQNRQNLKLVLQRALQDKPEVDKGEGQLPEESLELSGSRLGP
# assay notes: MRGPRX4 activation, Fluo-8 Ca2+ FLIPR assay in HEK293T cells stably expressing MRGPRX4
# Type: cell-based
# measurement context: Conc. (Log[M]) −7
Kindly state MRGPRX4 activation, fluorescence change (dF/F0), Average for each of the entries shown.

Find the recorded MRGPRX4 activation, fluorescence change (dF/F0), Average belonging to "CC[C@H]1[C@@H](OC(=O)c2cccc(I)c2)[C@@H]2[C@H](CC[C@@]3(C)[C@H]2CC[C@]3(Cl)[C@H](C)CCC(=O)OC)[C@@]2(C)CCCC[C@@H]12" and report it.
−0.001

Find the recorded MRGPRX4 activation, fluorescence change (dF/F0), Average belonging to "CC[C@H]1[C@@H](O)[C@@H]2[C@H](CC[C@]3(C)[C@@H]([C@H](C)CCNC(=O)NS(=O)(=O)c4ccc(C)cc4)CC[C@@H]23)[C@@]2(C)CCCC[C@@H]12" and report it.
0.023

Find the recorded MRGPRX4 activation, fluorescence change (dF/F0), Average belonging to "CC[C@H]1[C@@H](O)[C@@H]2[C@H](CC[C@]3(C)[C@@H]([C@H](C)CCNC(=O)NS(=O)(=O)C4CCCCC4)CC[C@@H]23)[C@@]2(C)CCCC[C@@H]12" and report it.
−0.011

Find the recorded MRGPRX4 activation, fluorescence change (dF/F0), Average belonging to "CC[C@H]1[C@@H](O)[C@@H]2[C@H](CC[C@]3(C)[C@@H]([C@H](C)CCNC(=O)NS(=O)(=O)C4CCC(C)(C)CC4)CC[C@@H]23)[C@@]2(C)CCCC[C@@H]12" and report it.
0.060

Find the recorded MRGPRX4 activation, fluorescence change (dF/F0), Average belonging to "CC[C@H]1[C@@H](O)[C@@H]2[C@H](CC[C@]3(C)[C@@H]([C@H](C)CCNC(=O)NS(=O)(=O)c4ccc(C(C)(C)C(=O)O)cc4)CC[C@@H]23)[C@@]2(C)CCCC[C@@H]12" and report it.
0.030

Find the recorded MRGPRX4 activation, fluorescence change (dF/F0), Average belonging to "CC[C@H]1[C@@H](O)[C@@H]2[C@H](CC[C@]3(C)[C@@H]([C@H](C)CCNC(=O)NS(=O)(=O)N4CCCC4)CC[C@@H]23)[C@@]2(C)CCCC[C@@H]12" and report it.
0.067

Find the recorded MRGPRX4 activation, fluorescence change (dF/F0), Average belonging to "CC[C@H]1[C@@H](O)[C@@H]2[C@H](CC[C@]3(C)[C@@H]([C@H](C)CCC(=O)NS(=O)(=O)CC)CC[C@@H]23)[C@@]2(C)CCCC[C@@H]12" and report it.
0.009

Find the recorded MRGPRX4 activation, fluorescence change (dF/F0), Average belonging to "C[C@H](CCC(=O)O)[C@H]1CC[C@H]2[C@@H]3CC[C@@H]4C[C@@H](O)CC[C@]4(C)[C@H]3C[C@@H](O)[C@]12C" and report it.
−0.007

Find the recorded MRGPRX4 activation, fluorescence change (dF/F0), Average belonging to "C[C@H](CC/C=C/C(=O)O)[C@H]1CC[C@H]2[C@@H]3CC[C@@H]4C[C@H](O)CC[C@]4(C)[C@H]3CC[C@]12C" and report it.
−0.045

Find the recorded MRGPRX4 activation, fluorescence change (dF/F0), Average belonging to "CC[C@H]1[C@@H](O)[C@@H]2[C@H](CC[C@]3(C)[C@@H]([C@H](C)CCNC(=O)NS(=O)(=O)c4ccc(C(C)(C)CO)cc4)CC[C@@H]23)[C@@]2(C)CCCC[C@@H]12" and report it.
0.020

Find the recorded MRGPRX4 activation, fluorescence change (dF/F0), Average belonging to "C[C@H](CCCC(=O)O)[C@H]1CC[C@H]2[C@@H]3CC[C@@H]4C[C@H](O)CC[C@]4(C)[C@H]3C[C@H](O)[C@]12C" and report it.
−0.012

Find the recorded MRGPRX4 activation, fluorescence change (dF/F0), Average belonging to "C[C@H](CCCO)[C@H]1CC[C@H]2[C@@H]3CC[C@@H]4CCCC[C@]4(C)[C@H]3CC[C@]12C" and report it.
−0.009

Find the recorded MRGPRX4 activation, fluorescence change (dF/F0), Average belonging to "C[C@H](CCC(C)(C)O)[C@H]1CC[C@H]2[C@@H]3CC[C@@H]4CCCC[C@]4(C)[C@H]3CC[C@]12C" and report it.
−0.008

Find the recorded MRGPRX4 activation, fluorescence change (dF/F0), Average belonging to "CC[C@H]1[C@@H](O)[C@@H]2[C@H](CC[C@]3(C)[C@@H]([C@H](C)CCNC(=O)NS(=O)(=O)c4cc(F)ccc4F)CC[C@@H]23)[C@@]2(C)CC[C@H](F)C[C@@H]12" and report it.
−0.029

Find the recorded MRGPRX4 activation, fluorescence change (dF/F0), Average belonging to "CC[C@H]1[C@@H](O)[C@@H]2[C@H](CC[C@]3(C)[C@@H]([C@H](C)CC(=O)O)CC[C@@H]23)[C@@]2(C)CCCC[C@@H]12" and report it.
−0.072

Find the recorded MRGPRX4 activation, fluorescence change (dF/F0), Average belonging to "C[C@H](CC(=O)O)[C@H]1CC[C@H]2[C@@H]3CC[C@@H]4C[C@H](O)CC[C@]4(C)[C@H]3C[C@H](O)[C@]12C" and report it.
−0.010

Find the recorded MRGPRX4 activation, fluorescence change (dF/F0), Average belonging to "CC[C@H]1[C@@H](O)[C@@H]2[C@H](CC[C@]3(C)[C@@H]([C@H](C)CC#N)CC[C@@H]23)[C@@]2(C)CCCC[C@@H]12" and report it.
−0.025

Find the recorded MRGPRX4 activation, fluorescence change (dF/F0), Average belonging to "CC[C@H]1[C@@H](O)[C@@H]2[C@H](CC[C@]3(C)[C@@H]([C@H](C)CCC(=O)O)CC[C@@H]23)[C@@]2(C)CCCC[C@@H]12" and report it.
−0.043

Find the recorded MRGPRX4 activation, fluorescence change (dF/F0), Average belonging to "CC[C@H]1[C@@H](OC(=O)c2cccc(I)c2)[C@H]2[C@@H]3[C@@H](O)C=C([C@H](C)CCC(=O)OC)[C@@]3(C)CC[C@@H]2[C@@]2(C)CCCC[C@@H]12" and report it.
−0.015

Find the recorded MRGPRX4 activation, fluorescence change (dF/F0), Average belonging to "CC[C@H]1[C@@H](OC(=O)c2cccc(I)c2)[C@@H]2[C@H](CC[C@]3(C)C([C@H](C)CCC(=O)OC)=CC(=O)[C@@H]23)[C@@]2(C)CCCC[C@@H]12" and report it.
−0.014

Find the recorded MRGPRX4 activation, fluorescence change (dF/F0), Average belonging to C[C@H](CCC(=O)O)[C@H]1CC[C@H]2[C@@H]3[C@H](O)C[C@@H]4C[C@H](O)CC[C@]4(C)[C@H]3CC[C@]12C [CDCA, chenodeoxycholic acid, reference compound] and report it.
−0.044

Find the recorded MRGPRX4 activation, fluorescence change (dF/F0), Average belonging to "CC[C@H]1[C@@H](O)[C@@H]2[C@H](CC[C@]3(C)[C@@H]([C@H](C)CCC(=O)NS(=O)(=O)C(C)(C)C)CC[C@@H]23)[C@@]2(C)CCCC[C@@H]12" and report it.
0.009

Find the recorded MRGPRX4 activation, fluorescence change (dF/F0), Average belonging to "CC[C@H]1[C@@H](OC(=O)c2cccc(I)c2)[C@@H]2[C@H](CC[C@]3(C)[C@@H]([C@H](C)CCC(=O)OC)CC[C@@H]23)[C@@]2(C)CCCC[C@@H]12" and report it.
−0.027

Find the recorded MRGPRX4 activation, fluorescence change (dF/F0), Average belonging to "CC[C@H]1[C@@H](O)[C@@H]2[C@H](CC[C@]3(C)[C@@H]([C@H](C)CCC(=O)OC)CC[C@@H]23)[C@@]2(C)CCCC[C@@H]12" and report it.
−0.006
